system: E. coli; assay type: cell-based; settings: no RBC; Table 2
Square brackets hold non-standard residues; d marks the D form. Peptide text beside a SMILES is read from it.

{"columns": ["molecule", "MIC, E. coli, No RBC"],
 "data": [
  ["CC(C)C[C@@H](NC(=O)[C@@H](CCCNC(=N)N)NC(=O)[C@@H](CCCNC(=N)N)NC(=O)[C@@H](C)NC(=O)[C@@H](Cc1c[nH]c2ccccc12)NC(=O)[C@@H](CCCNC(=N)N)NC(=O)[C@H](N)CCCNC(=N)N)C(=O)N[C@H](C)C(=O)N[C@H](Cc1ccccc1)C(=O)N[C@H](Cc1ccccc1)C(=O)N[C@H](CCCNC(=N)N)C(=O)N[C@H](CCCNC(=N)N)C(N)=O [D-CONGA-ΔA10, rrwarrlaffrr (All D)] (H-[dR][dR][dW][dA][dR][dR][dL][dA][dF][dF][dR][dR]-NH2)", "0.7 µM"],
  ["CC(C)C[C@@H](NC(=O)[C@@H](CCCNC(=N)N)NC(=O)[C@H](CCCNC(=N)N)NC(=O)[C@@H](C)NC(=O)[C@@H](Cc1c[nH]c2ccccc12)NC(=O)[C@@H](CCCNC(=N)N)NC(=O)[C@H](N)CCCNC(=N)N)C(=O)N[C@H](C)C(=O)N[C@H](Cc1ccccc1)C(=O)N[C@@H](C)C(=O)N[C@H](Cc1ccccc1)C(=O)N[C@H](CCCNC(=N)N)C(=O)N[C@H](CCCNC(=N)N)C(N)=O [D-CONGA-L(R5, A10), rrwaRrlafAfrr] (H-[dR][dR][dW][dA]R[dR][dL][dA][dF]A[dF][dR][dR]-NH2)", "1.4 µM"]
]}
